target: T1, human GPC3 on CHO-K1-human GPC3 cells (CHOK1-hGPC3.2B5) (human, UniProt P51654 25-554); experiment: FACS, CHOK1-hGPC3.2B5 cells;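 note: flow cytometry of humanized antibodies binding to the cells over one hour in the cold, read as cell mean fluorescence intensity, with EC50 obtained by curve fitting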
T1 construct: whole, on cells
readoutName: Max MFI

hAb003LH2L1b (antibody, human IgG1, V domains shown, Humanized F2.154.1; VH H2 + VL L1b; expressed as human IgG1) VH: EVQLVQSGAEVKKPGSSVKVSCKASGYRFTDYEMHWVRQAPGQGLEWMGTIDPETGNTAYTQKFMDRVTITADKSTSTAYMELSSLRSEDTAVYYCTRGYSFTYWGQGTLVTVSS VL: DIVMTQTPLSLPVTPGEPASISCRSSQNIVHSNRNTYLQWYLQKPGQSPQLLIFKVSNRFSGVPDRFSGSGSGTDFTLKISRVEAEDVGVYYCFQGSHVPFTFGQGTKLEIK
5000 MFI
hAb006LH2L1 (antibody, human IgG1, V domains shown, Humanized F3.38.7; VH H2 + VL L1; expressed as human IgG1) VH: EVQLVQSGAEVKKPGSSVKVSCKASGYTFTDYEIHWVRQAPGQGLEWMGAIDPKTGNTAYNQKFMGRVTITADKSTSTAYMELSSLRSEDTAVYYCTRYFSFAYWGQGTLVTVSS VL: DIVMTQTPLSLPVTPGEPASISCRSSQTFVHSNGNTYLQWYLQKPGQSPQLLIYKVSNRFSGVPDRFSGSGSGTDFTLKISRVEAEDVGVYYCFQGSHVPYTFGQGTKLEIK
4880 MFI
hAb007LH1L1e (antibody, human IgG1, V domains shown, Humanized F3.81.19; VH H1 + VL L1e; expressed as human IgG1) VH: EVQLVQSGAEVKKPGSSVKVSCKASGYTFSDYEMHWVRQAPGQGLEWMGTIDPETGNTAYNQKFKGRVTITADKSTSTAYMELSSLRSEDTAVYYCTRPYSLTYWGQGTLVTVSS VL: DIVMTQTPLSLPVTPGEPASISCRSSQSFVHSNVDTYLQWYLQKPGQSPQLLIYKVSNRFSGVPDRFSGSGSGTDFTLKISRVEAEDVGVYYCFQGSHVPYTFGQGTKLEIK
15000 MFI

Hey, just so you know, these numbers are from patent US20260116991A1.
